cell viability reference
tested on: NOMO1; experiment: cell viability relative to DMSO control; higher = less cytotoxic; conditions: RPMI 5 mM glucose + 10% FBS; 48 h; 0.000781 µM
Quick reminder: number only, in %, skip the unit.

See these solved cases before continuing.
O=C(Oc1ccc([N+](=O)[O-])cc1)N1CCC(C(O)(c2ccc3c(c2)OCO3)c2ccc3c(c2)OCO3)CC1
87.7
ClC1=CC\2=C(OC3=C(C=CC=C3)\N=C2N4CCNCC4)C=C1
87
NC(=O)c1cccc2nc(-c3ccc([C@H]4CCCN4)cc3F)[nH]c12
95.8
NC/1=N/C(=O)N(/C=C1F)[C@H]2CS[C@H](CO)O2
108

As a next step, examine the molecule that follows.
Which cell viability is reported for this molecule? `CC(C)C[C@H](NC(=O)CNC(=O)c1cc(Cl)ccc1Cl)B(O)O` 81.1

====

tested on: P12-Ichikawa; test: cell viability relative to DMSO control; higher = less cytotoxic; conditions: HPLM + 10% dialyzed FBS; 48 h; 0.00702 µM
measurement.label: cell viability (%)
Quick reminder: number only, in %, skip the unit.

CC(C)c1ccc(Cn2ccc3c4c(N)nc(NC5CC5)nc4ccc32)cc1
119

Which cell viability is reported for this molecule? `Oc1cccc(-c2nc(N3CCOCC3)c3oc4ncccc4c3n2)c1` 123

Now the same for `COc1ccc([C@@H]2CC(=O)c3c(O)cc(O[C@@H]4O[C@H](CO[C@@H]5O[C@@H](C)[C@H](O)[C@@H](O)[C@H]5O)[C@@H](O)[C@H](O)[C@H]4O)cc3O2)cc1O` 116

Now the same for `CN1\N=C(N)/C2=C[N]([C@@H]3O[C@H](CO[P](O)(O)=O)[C@@H](O)[C@H]3O)C4=C2C1=NC=N4` 110

Now the same for `Cc1cc(C(=O)N2CCN(c3cccc(Cl)c3)CC2)n(-c2ccccc2)n1` 103

====

cell viability reference
tested on: P12-Ichikawa; test: cell viability relative to DMSO control; higher = less cytotoxic; conditions: RPMI 5 mM glucose + 10% dialyzed FBS; 48 h; 0.00234 µM

See these solved cases before continuing.
Cn1c(=O)n(-c2ccc(C(C)(C)C#N)cc2)c2c3cc(-c4cnc5ccccc5c4)ccc3ncc21
117%
CN1CCCC(CC1)N2\N=C(CC3=CC=C(Cl)C=C3)/C4=C(C=CC=C4)C2=O (centres undefined)
109%
C=CCc1cccc(/C=N/NC(=O)CN2CCN(Cc3ccccc3)CC2)c1O
99.7%
N#Cc1ccnc(Nc2cc(C3CCN(C4COC4)CC3)cc(N3CCC(F)(F)C3)n2)c1
104%
CN(C)CCCN1c2ccccc2CCc2ccc(Cl)cc21
155%
CN[C@@H](C)C(=O)N[C@H]1CN(C(=O)CC(C)C)CC[C@H]2CC[C@@H](C(=O)NC(c3ccccc3)c3ccccc3)N2C1=O
113%
CCN(C(=O)C/1=C(O)/C2=C(C=CC=C2Cl)N(C)C1=O)C3=CC=CC=C3
91.3%
Cc1cc(Nc2nc(N[C@@H](C)c3ccc(F)cc3)c(C#N)cc2F)n[nH]1
89.5%

Which measured cell viability belongs to `CC(C)C[C@H](NC(=O)CNC(=O)c1cc(Cl)ccc1Cl)B(O)O` , tested on P12-Ichikawa? 88.6%

====

cell viability reference
test system: P12-Ichikawa; assay: cell viability relative to DMSO control; higher = less cytotoxic; conditions: HPLM + 10% dialyzed FBS; 48 h; 1.71 µM
Quick reminder: number only, in %, skip the unit.

CC[C@]12\C=C/CN3CC[C@]4([C@@H](N(C)C5=CC(=C(C=C45)[C@]6(C[C@H]7C[C@H](CN(C7)CC8=C6[NH]C9=C8C=CC=C9)C(C)(F)F)C(=O)OC)OC)[C@](O)([C@@H]1OC(C)=O)C(=O)OC)[C@H]23
13.2
C=CCc1cccc(/C=N/NC(=O)CN2CCN(Cc3ccccc3)CC2)c1O
106
C[C@]12CC[C@@H]3c4ccc(O)cc4CC[C@H]3[C@@H]1C[C@@H](O)[C@@H]2O
110
CNC[C@H](O)c1cccc(O)c1
116
COc1cc2c(Nc3ccc(Br)cc3F)ncnc2cc1OCC1CCN(C)CC1
82.8
CN(C)CCN(C)C(=O)c1ccc(NC(=O)Nc2ccc(-c3nc(N4CCOCC4)c4ccn(CC(F)(F)F)c4n3)cc2)cc1
89.7
COC(=O)C1C2CC3c4[nH]c5cc(OC)ccc5c4CCN3CC2CC(OC(=O)c2cc(OC)c(OC)c(OC)c2)C1OC (stereo unspecified)
105
O=C(Nc1ncc(-c2cc(C(F)F)nn2-c2c(Cl)cccc2Cl)s1)C1CC1
14.2

As a next step, examine the molecule that follows.
Which cell viability is reported for this molecule? CC(O)(C#Cc1ccc2c(c1)N(c1nc(N)ncc1Cl)CC2)c1nccs1 (stereo unspecified) 121
